These entries and their values trace back to paper PMC5613053.

Molecular target: LTK (Homo sapiens)
Construct: purchased Carna Biosciences, Inc
Sequence (P29376 17-864): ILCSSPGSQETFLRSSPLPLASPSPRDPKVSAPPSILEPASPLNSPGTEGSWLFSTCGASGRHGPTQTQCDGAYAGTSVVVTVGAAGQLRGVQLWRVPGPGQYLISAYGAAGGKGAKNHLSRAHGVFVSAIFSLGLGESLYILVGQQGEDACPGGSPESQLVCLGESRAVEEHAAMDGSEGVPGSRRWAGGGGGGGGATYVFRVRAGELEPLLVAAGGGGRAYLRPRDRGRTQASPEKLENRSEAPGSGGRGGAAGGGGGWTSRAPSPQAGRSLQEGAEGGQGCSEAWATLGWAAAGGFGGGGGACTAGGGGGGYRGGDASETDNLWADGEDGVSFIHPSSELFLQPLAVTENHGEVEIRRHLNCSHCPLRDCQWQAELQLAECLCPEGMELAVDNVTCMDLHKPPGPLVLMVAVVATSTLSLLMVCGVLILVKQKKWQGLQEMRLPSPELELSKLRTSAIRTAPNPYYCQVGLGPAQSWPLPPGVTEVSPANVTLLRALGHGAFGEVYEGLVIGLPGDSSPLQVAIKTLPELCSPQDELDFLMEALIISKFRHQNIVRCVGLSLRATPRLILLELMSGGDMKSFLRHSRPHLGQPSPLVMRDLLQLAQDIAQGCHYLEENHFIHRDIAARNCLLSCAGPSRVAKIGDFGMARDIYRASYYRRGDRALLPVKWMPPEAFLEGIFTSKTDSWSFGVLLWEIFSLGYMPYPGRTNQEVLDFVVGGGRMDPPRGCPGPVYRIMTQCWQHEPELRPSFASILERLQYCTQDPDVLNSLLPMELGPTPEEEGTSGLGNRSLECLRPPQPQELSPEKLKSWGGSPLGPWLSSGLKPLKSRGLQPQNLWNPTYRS
Assay: Kinase inhibitory assay (TK-ELISA / off-chip MSA)
Assay type: biochemical
pIC50: −log10 of the molar value.
attribute_measured: pIC50

| smiles_data | numeric_result |
| --- | --- |
| CCc1nc(C(N)=O)c(Nc2ccc(N3CCC(N4CCN(C)CC4)CC3)c(OC)c2)nc1NC1CCOCC1 | 9.46 |
